Source: BigSolDB 2.1

settings: in ethanol, 283.15 K
measured property: solubility (mole fraction)

Consider the molecule shown here: CO[C@@]1(NC(=O)CSCC#N)C(=O)N2C(C(=O)O)=C(CSc3nnnn3C)CS[C@@H]21 What is its recorded solubility (mole fraction)?
0.000276

----------
conditions: in ethanol, 303.15 K
measured property: solubility (mole fraction)
Just the number, please, no unit attached.

Param item = CO[C@@]1(NC(=O)CSCC#N)C(=O)N2C(C(=O)O)=C(CSc3nnnn3C)CS[C@@H]21 ; retrieve measured solubility (mole fraction).
0.000659

----------
conditions: in methanol, 288.15 K
measured property: solubility (mole fraction)
Form: value (number only, do not type unit).

Given the molecule CO[C@@]1(NC(=O)CSCC#N)C(=O)N2C(C(=O)O)=C(CSc3nnnn3C)CS[C@@H]21 , what is its reported solubility (mole fraction)?
0.00222
